- testTarget: mouse δ opioid receptor (Mus musculus, UniProt P32300)
- Sequence (P32300 whole entry): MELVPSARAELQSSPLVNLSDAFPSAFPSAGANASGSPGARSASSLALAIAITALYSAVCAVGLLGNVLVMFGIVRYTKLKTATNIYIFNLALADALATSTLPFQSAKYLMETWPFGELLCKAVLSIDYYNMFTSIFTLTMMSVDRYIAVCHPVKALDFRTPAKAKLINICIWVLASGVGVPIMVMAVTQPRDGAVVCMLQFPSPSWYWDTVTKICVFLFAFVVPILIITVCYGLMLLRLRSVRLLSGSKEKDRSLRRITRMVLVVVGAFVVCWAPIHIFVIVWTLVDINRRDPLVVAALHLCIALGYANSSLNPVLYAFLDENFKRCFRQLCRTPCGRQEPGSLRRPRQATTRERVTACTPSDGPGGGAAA
- protocol: cell-based
- Assay type: cell-based
- settings: IC50 ± SEM
observationType: log10 of IC50 (log10 of the value in nM)
Hey, these are logged values: log10 of IC50, nM being the unit before logging.

{"columns": ["compound", "resultNumber"],
 "data": [
  ["Oc1ccc2c(c1)[C@@]13CCCC[C@@]1(O)[C@@H](C2)N(CC1CCC1)CC3 [Butorphanol]", 1.79],
  ["C[C@@]12CCCCC[C@@H](Cc3ccc(O)cc31)[C@@H]2N [Dezocine]", 2.68],
  ["C[C@H]1[C@H]2Cc3ccc(O)cc3[C@]1(C)CCN2CC1CC1 [Cyclazocine]", 0.78],
  ["C[C@H]1[C@H]2Cc3ccc(O)cc3[C@]1(C)CCN2C [Metazocine]", 2.20]
]}

Proceed to the following item.
Challenge: API: value(readout=log10 of IC50, system=mouse δ opioid receptor (Mus musculus, UniProt P32300)) for record C=CCN1CCC2(C)c3cc(O)ccc3CC1C2C (centres unmarked) [SKF 10047]
Response given: 2.26
